tested on: T-47D breast; experiment: NCI-60 one-dose screen, 48 h; settings: 10 µM unless noted
About 83,000 compounds went through this panel and 20% of them were active in at least one assay; those are over-represented in the sample as a whole. Active and inactive are the calls of the source. Rule for the calls: active = growth percent below 10; inactive = the rest.
Outcome (select one): label 1 (active), label 0 (inactive)

SAMPLE SMILES	CLASS
O=C1c2ccc3c4c(ccc(c24)C(=O)N1CCCNCc1ccccc1F)C(=O)N(CCCNCc1ccccc1F)C3=O	label 1

Ask: Short answer needed: outcome of this test for O=S(=O)(Nc1ccc(-n2cnc3cc(-c4ccc(O)cc4)ccc32)cc1)c1ccccc1 ?
Reply: label 1

Ask: Short answer needed: outcome of this test for O=C(CCN1CCCC1)Nc1ccc2c(NCCCc3ccccc3)c3ccccc3nc2c1 ?
Reply: label 0

Ask: Short answer needed: outcome of this test for NNC(=O)c1ccc(-n2nc(-c3ccccc3)c3ccccc32)cc1 ?
Reply: label 0

Ask: Short answer needed: outcome of this test for CCOC(=O)c1cc(C(=O)c2cc(OC)cc(OC)c2)n2ccc3ccccc3c12 ?
Reply: label 0

Ask: Short answer needed: outcome of this test for O=C1c2cccc3c(-c4ccc5c(c4)ncn5C4CCCCC4)ccc(c23)C(=O)N1CCO ?
Reply: label 0

Ask: Short answer needed: outcome of this test for O=C(CCN1CCCC1)Nc1ccc2c(NCCc3ccccc3)c3ccccc3nc2c1 ?
Reply: label 1

Ask: Short answer needed: outcome of this test for COc1cc2c(-c3cc4c(cc3CNCCc3ccc5c(c3)OCO5)OCO4)cccc2c(OC)c1O ?
Reply: label 0

Ask: Short answer needed: outcome of this test for O=C(CSc1nc2ccccc2[nH]1)NCc1ccccc1 ?
Reply: label 0

Ask: Short answer needed: outcome of this test for CC(=O)c1ccc(NS(=O)(=O)c2cccc(C(=O)Nc3ccc(Br)cc3)c2)cc1 ?
Reply: label 0
